Target: MNK2a (Homo sapiens (Human), UniProt Q9HBH9)
Sequence (Q9HBH9 whole entry): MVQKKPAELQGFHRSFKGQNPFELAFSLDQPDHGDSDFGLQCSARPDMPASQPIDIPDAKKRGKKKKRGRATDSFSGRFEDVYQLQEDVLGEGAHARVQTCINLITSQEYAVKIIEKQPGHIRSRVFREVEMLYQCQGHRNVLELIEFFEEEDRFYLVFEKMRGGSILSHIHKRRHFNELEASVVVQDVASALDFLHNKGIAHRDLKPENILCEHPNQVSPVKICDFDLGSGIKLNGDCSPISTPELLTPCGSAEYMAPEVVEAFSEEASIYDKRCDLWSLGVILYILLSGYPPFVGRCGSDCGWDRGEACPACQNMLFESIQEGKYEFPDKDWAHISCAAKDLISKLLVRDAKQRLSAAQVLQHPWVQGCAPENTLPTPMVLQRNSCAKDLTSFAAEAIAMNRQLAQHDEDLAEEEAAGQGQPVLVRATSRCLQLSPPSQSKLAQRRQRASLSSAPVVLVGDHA
Experiment: MNK2a in vitro kinase assay (Assay 2), ADP-Glo
Assay type: biochemical
Conditions: assay 2; read-out: MNK2 IC50
Text: B. MNK2a In Vitro Kinase Assay (Assay 2)
Endpoint Name: IC50 (nM)
# number only, unit nM dropped from output

Cc1cc(N=S2(=O)CCCC2)cc2ncnc(Nc3ccc(Cl)cc3O[C@@H]3COC[C@H]3O)c12
4

Using MNK2a (Homo sapiens (Human), UniProt Q9HBH9) as the test system, report measured IC50 of COc1cc(N=S(C)(=O)c2ccccc2)cc2ncnc(Nc3ccc(F)cc3O[C@H]3COC[C@@H]3O)c12 (stereo partly shown) .
13

Using MNK2a (Homo sapiens (Human), UniProt Q9HBH9) as the test system, report measured IC50 of Cc1cc(N=S2(=O)CCCC2)cc2ncnc(Nc3ccc(F)cc3O[C@@H]3CNC[C@H]3O)c12 .
6

Using MNK2a (Homo sapiens (Human), UniProt Q9HBH9) as the test system, report measured IC50 of Cc1cc(N=S(C)(=O)C(C)C)cc2ncnc(Nc3ccc(F)cc3O[C@@H]3COC[C@@H]3O)c12 (mixture of isomers) .
6
